assay: Metabolic stability in mouse liver microsomes assessed as compound remaining and measured after 60 mins in presence of beta-NADPH by liquid chromatography tandem mass spectrometry analysis; type: ADME, Microsome; settings: read-out: Stability
Assign labels as follows, please: YES for remaining at 1 h below 40%; NO for remaining at 1 h equal to or exceeding 40%.

O=C(CNC1CC1c1cc(F)cc(F)c1OCc1cccnc1F)N1CCC2(CCCN2)CC1 (stereo unspecified): NO
O=C(CNC1CC1c1cc(F)cc(F)c1OCc1cccnc1F)N1CCC2(CCNC2)CC1 (stereo unspecified): NO
O=C(CN[C@@H]1C[C@H]1c1cc(F)cc(F)c1OCc1cccnc1F)N1CCC2(CCNC2)CC1: NO
O=C(CN[C@H]1C[C@@H]1c1cc(F)cc(F)c1OCc1cccnc1F)N1CCC2(CCNC2)CC1: NO
O=C(CNC1CC1c1cc(F)cc(F)c1OCc1cccnc1F)N1CCC(N2CC3CCC(C2)N3)CC1 (stereo unspecified): YES
O=C(CNC1CC1c1cc(F)cc(F)c1OCc1cccnc1F)N1CCC(N2CC3CCC(C2)O3)CC1 (stereo unspecified): YES

* * *

assay: Metabolic stability in human liver microsomes assessed as compound remaining and measured after 60 mins in presence of beta-NADPH by liquid chromatography tandem mass spectrometry analysis; format: ADME, Microsome; conditions: read-out: Stability
A collection of molecules and their measured remaining at 1 h
RECORDED METRIC: remaining at 1 h (%)

O=C(CNC1CC1c1cc(F)cc(F)c1OCc1cccnc1F)N1CCC2(CCNC2)CC1 (stereo unspecified): 44
O=C(CNC1CC1c1cc(F)cc(F)c1OCc1cccnc1F)N1CCC(N2CC3CCC(C2)O3)CC1 (stereo unspecified): 0
O=C(CN[C@H]1C[C@@H]1c1cc(F)cc(F)c1OCc1cccnc1F)N1CCC2(CCNC2)CC1: 38
O=C(CNC1CC1c1cc(F)cc(F)c1OCc1cccnc1F)N1CCC2(CCCN2)CC1 (stereo unspecified): 41
O=C(CN[C@@H]1C[C@H]1c1cc(F)cc(F)c1OCc1cccnc1F)N1CCC2(CCNC2)CC1: 45
O=C(CNC1CC1c1cc(F)cc(F)c1OCc1cccnc1F)N1CCC(N2CC3CCC(C2)N3)CC1 (stereo unspecified): 0

* * *

assay: Metabolic stability in rat liver microsomes assessed as compound remaining and measured after 60 mins in presence of beta-NADPH by liquid chromatography tandem mass spectrometry analysis; format: ADME, Microsome; conditions: read-out: Stability
A collection of compounds and their measured remaining at 1 h
RECORDED METRIC: remaining at 1 h

O=C(CN[C@H]1C[C@@H]1c1cc(F)cc(F)c1OCc1cccnc1F)N1CCC2(CCNC2)CC1: 62%
O=C(CNC1CC1c1cc(F)cc(F)c1OCc1cccnc1F)N1CCC(N2CC3CCC(C2)O3)CC1 (stereo unspecified): 0%
O=C(CNC1CC1c1cc(F)cc(F)c1OCc1cccnc1F)N1CCC2(CCCN2)CC1 (stereo unspecified): 20%
O=C(CNC1CC1c1cc(F)cc(F)c1OCc1cccnc1F)N1CCC2(CCNC2)CC1 (stereo unspecified): 56%
O=C(CN[C@@H]1C[C@H]1c1cc(F)cc(F)c1OCc1cccnc1F)N1CCC2(CCNC2)CC1: 55%
O=C(CNC1CC1c1cc(F)cc(F)c1OCc1cccnc1F)N1CCC(N2CC3CCC(C2)N3)CC1 (stereo unspecified): 24%

* * *

molecular target: hERG (KCNH2) (Homo sapiens); assay: Inhibition of human ERG expressed in human HEK293 cells at 10 uM for 2 mins by whole-cell patch-clamp system; format: toxicity, cell-based; conditions: HEK293 cells expressing human ERG
Sequence (Q12809 whole entry): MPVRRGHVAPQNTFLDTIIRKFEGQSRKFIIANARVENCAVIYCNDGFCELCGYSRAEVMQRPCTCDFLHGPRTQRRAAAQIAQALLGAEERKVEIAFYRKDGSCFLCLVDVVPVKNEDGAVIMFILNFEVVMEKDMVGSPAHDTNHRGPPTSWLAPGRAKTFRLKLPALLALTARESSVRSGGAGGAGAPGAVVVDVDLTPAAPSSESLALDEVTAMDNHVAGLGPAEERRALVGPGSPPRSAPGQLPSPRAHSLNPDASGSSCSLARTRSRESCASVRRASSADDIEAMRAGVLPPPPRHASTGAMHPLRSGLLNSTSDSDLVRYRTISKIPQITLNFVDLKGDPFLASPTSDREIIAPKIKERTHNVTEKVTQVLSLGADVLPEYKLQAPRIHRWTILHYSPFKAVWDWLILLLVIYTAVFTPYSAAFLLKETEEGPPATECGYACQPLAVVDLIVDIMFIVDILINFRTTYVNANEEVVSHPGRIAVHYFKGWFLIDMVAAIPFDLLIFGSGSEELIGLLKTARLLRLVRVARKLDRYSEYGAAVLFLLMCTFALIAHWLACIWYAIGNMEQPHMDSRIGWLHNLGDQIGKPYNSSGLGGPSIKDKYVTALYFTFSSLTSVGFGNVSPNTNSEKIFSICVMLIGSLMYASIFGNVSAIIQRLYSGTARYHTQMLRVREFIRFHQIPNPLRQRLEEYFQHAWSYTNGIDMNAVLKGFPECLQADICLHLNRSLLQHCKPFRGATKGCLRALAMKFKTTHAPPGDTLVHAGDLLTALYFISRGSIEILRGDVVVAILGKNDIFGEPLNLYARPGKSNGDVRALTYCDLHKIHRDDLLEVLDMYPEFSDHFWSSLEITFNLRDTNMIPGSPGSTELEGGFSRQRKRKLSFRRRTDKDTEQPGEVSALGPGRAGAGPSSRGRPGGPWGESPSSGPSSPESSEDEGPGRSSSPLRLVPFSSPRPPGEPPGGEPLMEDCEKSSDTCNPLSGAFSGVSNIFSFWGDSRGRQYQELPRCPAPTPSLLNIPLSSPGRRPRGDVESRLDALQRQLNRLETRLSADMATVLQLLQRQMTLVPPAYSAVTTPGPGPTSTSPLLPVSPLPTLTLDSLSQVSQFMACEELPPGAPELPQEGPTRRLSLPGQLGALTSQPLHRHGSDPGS
RECORDED METRIC: inhibition at 2 min, 10 µM (%)

O=C(CNC1CC1c1cc(F)cc(F)c1OCc1cccnc1F)N1CCC(N2CC3CCC(C2)N3)CC1 (configuration not stated): 23
COCCN1CCN(C(=O)CNC2CC2c2cc(F)cc(F)c2OCc2ccnc(F)c2)CC1 (configuration not stated): 46
O=C(CNC1CC1c1cc(F)cc(F)c1OCc1cccnc1F)N1CCC(N2CC3CCC(C2)O3)CC1 (configuration not stated): 32
O=C(CNC1CC1c1cc(F)cc(F)c1OCc1cccnc1F)N1CCC2(CCNC2)CC1 (configuration not stated): 10
COCCN1CCN(C(=O)CNC2CC2c2cc(F)cc(F)c2OCCc2ccccc2)CC1 (configuration not stated): 76
COCCN1CCN(C(=O)CNC2CC2c2cc(F)cc(F)c2OCc2cccnc2F)CC1 (configuration not stated): 21
COCCN1CCN(C(=O)CNC2CC2c2cc(F)cc(F)c2OCc2cc[nH]n2)CC1 (configuration not stated): 8
CN1CCN(C(=O)CNC2CC2c2cc(F)cc(F)c2OCc2ccccc2)CC1 (racemic): 51
COCCN1CCN(C(=O)CNC2CC2c2cc(F)cc(F)c2OCc2cnn(C)c2)CC1 (configuration not stated): 14
O=C(CNC1CC1c1cc(F)cc(F)c1OCc1cccnc1F)N1CCC2(CCCN2)CC1 (configuration not stated): 62
COCCN1CCN(C(=O)CNC2CC2c2cc(F)cc(F)c2OCc2ccccc2)CC1 (configuration not stated): 50

* * *

experiment: Tmax in ICR mouse serum at 10 mg/kg, ip; type: ADME, organism-based
A collection of compounds and their measured Tmax
RECORDED METRIC: Tmax (min)

O=C(CN[C@H]1C[C@@H]1c1cc(F)cc(F)c1OCc1cccnc1F)N1CCC2(CCNC2)CC1: 30
CN1CCN(C(=O)CNC2CC2c2cc(F)cc(F)c2OCc2ccccc2)CC1 (racemic): 15

* * *

A collection of compounds and their measured Cmax
assay: Cmax in ICR mouse serum at 10 mg/kg, ip; format: ADME, organism-based; design: dose 10 mg/kg, route ip
RECORDED METRIC: Cmax (nM)

O=C(CN[C@H]1C[C@@H]1c1cc(F)cc(F)c1OCc1cccnc1F)N1CCC2(CCNC2)CC1: 3030
CN1CCN(C(=O)CNC2CC2c2cc(F)cc(F)c2OCc2ccccc2)CC1 (racemic): 960
